measuredTarget: T1, soluble human FcRn (shFcRn) (human, UniProt P55899 24-297; P61769 21-119)
T1 construct: Biotinylated for the ELISA, amine-coupled to a CM5 chip for SPR; also called biotinylated shFcRn
T1 sequence (P55899 24-297 limits assumed, chain 1 of 2): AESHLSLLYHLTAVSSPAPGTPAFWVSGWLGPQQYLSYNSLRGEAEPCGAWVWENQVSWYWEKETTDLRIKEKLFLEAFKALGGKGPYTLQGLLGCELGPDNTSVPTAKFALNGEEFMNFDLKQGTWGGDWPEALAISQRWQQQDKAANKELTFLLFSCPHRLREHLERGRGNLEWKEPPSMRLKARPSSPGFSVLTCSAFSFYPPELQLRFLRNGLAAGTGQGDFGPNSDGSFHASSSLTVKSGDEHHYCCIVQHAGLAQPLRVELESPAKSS
T1 sequence (P61769 21-119 limits assumed, chain 2 of 2): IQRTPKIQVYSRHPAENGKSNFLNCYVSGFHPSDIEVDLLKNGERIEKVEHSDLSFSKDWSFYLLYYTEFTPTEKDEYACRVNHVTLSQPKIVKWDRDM
assayName: SPR pH 6; Orn in place of His
measuredEndpoint: pKd
Just the number, please; pKd means minus log10 of the concentration in mol/L.

Return reported pKd; argument: RFCTGXFGGLYPC (Pen 3; Orn 6; Sar 9; NMeL 10; disulfide 3-13; C-terminal amide) [Peptide No. 254]
5.89
